Each entry below lists one item and its recorded pIC50 value.
Biological target: ACE (from rabbit lung) (Oryctolagus cuniculus, UniProt P12822)
Sequence (P12822 34-1310): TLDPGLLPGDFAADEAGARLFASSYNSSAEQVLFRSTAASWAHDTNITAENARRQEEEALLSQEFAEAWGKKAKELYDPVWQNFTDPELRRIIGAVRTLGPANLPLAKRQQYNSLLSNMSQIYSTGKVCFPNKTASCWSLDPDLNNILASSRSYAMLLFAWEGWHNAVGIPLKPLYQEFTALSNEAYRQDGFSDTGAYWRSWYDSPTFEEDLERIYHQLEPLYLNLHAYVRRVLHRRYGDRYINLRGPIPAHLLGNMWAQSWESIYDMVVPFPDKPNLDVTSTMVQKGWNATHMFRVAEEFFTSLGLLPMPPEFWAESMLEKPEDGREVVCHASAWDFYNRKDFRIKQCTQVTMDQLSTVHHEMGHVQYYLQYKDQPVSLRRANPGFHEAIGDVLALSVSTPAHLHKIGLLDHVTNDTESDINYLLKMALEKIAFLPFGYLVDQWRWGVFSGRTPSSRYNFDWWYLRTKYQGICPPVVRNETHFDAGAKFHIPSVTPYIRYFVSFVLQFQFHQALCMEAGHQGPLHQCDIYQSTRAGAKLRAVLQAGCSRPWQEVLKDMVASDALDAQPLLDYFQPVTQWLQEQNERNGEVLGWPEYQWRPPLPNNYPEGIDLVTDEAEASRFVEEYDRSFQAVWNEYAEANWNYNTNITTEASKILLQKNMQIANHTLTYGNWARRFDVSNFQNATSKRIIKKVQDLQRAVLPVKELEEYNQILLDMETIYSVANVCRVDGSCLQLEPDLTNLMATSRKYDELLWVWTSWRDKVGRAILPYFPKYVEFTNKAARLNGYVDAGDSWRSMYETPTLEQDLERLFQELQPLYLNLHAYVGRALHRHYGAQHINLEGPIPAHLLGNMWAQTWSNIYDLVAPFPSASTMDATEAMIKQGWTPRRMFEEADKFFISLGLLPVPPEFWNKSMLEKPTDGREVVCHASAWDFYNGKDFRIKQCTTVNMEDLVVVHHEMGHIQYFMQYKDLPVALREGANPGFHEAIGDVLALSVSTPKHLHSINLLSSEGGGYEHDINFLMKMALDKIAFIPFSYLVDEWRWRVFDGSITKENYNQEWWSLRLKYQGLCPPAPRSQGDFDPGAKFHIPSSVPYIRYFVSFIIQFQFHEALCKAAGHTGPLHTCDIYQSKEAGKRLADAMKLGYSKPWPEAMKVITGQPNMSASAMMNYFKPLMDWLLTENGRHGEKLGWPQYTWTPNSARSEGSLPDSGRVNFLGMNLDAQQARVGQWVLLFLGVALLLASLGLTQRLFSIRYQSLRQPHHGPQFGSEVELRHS
pIC50: −log10 of the molar value. Residues, ends and D or L forms follow the SMILES beside them.

[
  {
    "compound": "CC(C)[C@H](N)C(=O)N[C@@H](C)C(=O)N1CCC[C@H]1C(=O)O [VAP] (H-Val-Ala-Pro-OH)",
    "assay_target": "ACE (from rabbit lung) (Oryctolagus cuniculus, UniProt P12822)",
    "pIC50": 6.00
  },
  {
    "compound": "CC(C)[C@H](NC(=O)CN)C(=O)NCC(=O)O [GVG] (H-Gly-Val-Gly-OH)",
    "assay_target": "ACE (from rabbit lung) (Oryctolagus cuniculus, UniProt P12822)",
    "pIC50": 3.43
  },
  {
    "compound": "CC(C)C[C@H](NC(=O)CN)C(=O)NCC(=O)O [GLG] (H-Gly-Leu-Gly-OH)",
    "assay_target": "ACE (from rabbit lung) (Oryctolagus cuniculus, UniProt P12822)",
    "pIC50": 3.31
  },
  {
    "compound": "CC(C)[C@H](N)C(=O)N[C@@H](CO)C(=O)N1CCC[C@H]1C(=O)O [VSP] (H-Val-Ser-Pro-OH)",
    "assay_target": "ACE (from rabbit lung) (Oryctolagus cuniculus, UniProt P12822)",
    "pIC50": 4.98
  },
  {
    "compound": "C[C@H](NC(=O)CN)C(=O)N1CCC[C@H]1C(=O)O [GAP] (H-Gly-Ala-Pro-OH)",
    "assay_target": "ACE (from rabbit lung) (Oryctolagus cuniculus, UniProt P12822)",
    "pIC50": 4.46
  },
  {
    "compound": "C[C@H](N)C(=O)N1CCC[C@H]1C(=O)O [AP] (H-Ala-Pro-OH)",
    "assay_target": "ACE (from rabbit lung) (Oryctolagus cuniculus, UniProt P12822)",
    "pIC50": 3.64
  },
  {
    "compound": "CC(C)[C@H](N)C(=O)N[C@@H](C)C(=O)O [VA] (H-Val-Ala-OH)",
    "assay_target": "ACE (from rabbit lung) (Oryctolagus cuniculus, UniProt P12822)",
    "pIC50": 3.49
  },
  {
    "compound": "C[C@@H](O)[C@H](N)C(=O)N[C@@H](CCCNC(=N)N)C(=O)N1CCC[C@H]1C(=O)O [TRP] (H-Thr-Arg-Pro-OH)",
    "assay_target": "ACE (from rabbit lung) (Oryctolagus cuniculus, UniProt P12822)",
    "pIC50": 5.89
  }
]

# credit: paper PMC10140934
